meta.source: patent US4596805A

# System: spontaneously hypertensive rats
# EXPERIMENT_NOTES: Spontaneously Hypertensive Rat Test (Test 3)
# Assay type: in vivo
# DETAILS: 100 mg/kg body weight, four male spontaneously hypertensive rats, indirect tail-cuff method
REPORTED_PROPERTY: Test 3 (mmHg, 100 mpk): average of the peak decrease in systolic blood pressure (mmHg)
Report as a plain number; the unit mmHg is understood.

COMPOUND	UNIT_ABBREV	VALUE_OBSERVED
CC1=C(C(=O)OCCN(C)Cc2ccccc2)C(c2cccc(Cl)c2)c2c(n(C)c(=O)n(C)c2=O)N1 (stereo not drawn)	mmHg	-50
CC1=C(C(=O)OCCN(C)Cc2ccccc2)C(c2cccc(C#N)c2)c2c(n(C)c(=O)n(C)c2=O)N1 (stereo not drawn)	mmHg	-31
CC1=C(C(=O)OCCN(C)Cc2ccccc2)C(c2cccc([N+](=O)[O-])c2)c2c([nH]c(=O)[nH]c2=O)N1 (stereo not drawn)	mmHg	-11

Recorded result, COC(=O)C1=C(C)Nc2c(c(=O)n(C)c(=O)n2C)C1c1cccc(Cl)c1 (stereo not drawn) , Test 3 (mmHg, 100 mpk): average of the peak decrease in systolic blood pressure: -31

Recorded result, CC1=C(C(=O)OCCBr)C(c2cccc(Cl)c2)c2c(n(C)c(=O)n(C)c2=O)N1 (stereo not drawn) , Test 3 (mmHg, 100 mpk): average of the peak decrease in systolic blood pressure: -16

Recorded result, CC1=C(C(=O)OCCN(C)Cc2ccccc2)C(c2cccc(Cl)c2)c2c([nH]c(=S)[nH]c2=O)N1 (stereo not drawn) , Test 3 (mmHg, 100 mpk): average of the peak decrease in systolic blood pressure: -16

---

# TESTED_TARGET: calcium channel antagonist receptors (rabbit heart) (Oryctolagus cuniculus, UniProt P15381)
# Sequence (P15381 whole entry, other chains not shown): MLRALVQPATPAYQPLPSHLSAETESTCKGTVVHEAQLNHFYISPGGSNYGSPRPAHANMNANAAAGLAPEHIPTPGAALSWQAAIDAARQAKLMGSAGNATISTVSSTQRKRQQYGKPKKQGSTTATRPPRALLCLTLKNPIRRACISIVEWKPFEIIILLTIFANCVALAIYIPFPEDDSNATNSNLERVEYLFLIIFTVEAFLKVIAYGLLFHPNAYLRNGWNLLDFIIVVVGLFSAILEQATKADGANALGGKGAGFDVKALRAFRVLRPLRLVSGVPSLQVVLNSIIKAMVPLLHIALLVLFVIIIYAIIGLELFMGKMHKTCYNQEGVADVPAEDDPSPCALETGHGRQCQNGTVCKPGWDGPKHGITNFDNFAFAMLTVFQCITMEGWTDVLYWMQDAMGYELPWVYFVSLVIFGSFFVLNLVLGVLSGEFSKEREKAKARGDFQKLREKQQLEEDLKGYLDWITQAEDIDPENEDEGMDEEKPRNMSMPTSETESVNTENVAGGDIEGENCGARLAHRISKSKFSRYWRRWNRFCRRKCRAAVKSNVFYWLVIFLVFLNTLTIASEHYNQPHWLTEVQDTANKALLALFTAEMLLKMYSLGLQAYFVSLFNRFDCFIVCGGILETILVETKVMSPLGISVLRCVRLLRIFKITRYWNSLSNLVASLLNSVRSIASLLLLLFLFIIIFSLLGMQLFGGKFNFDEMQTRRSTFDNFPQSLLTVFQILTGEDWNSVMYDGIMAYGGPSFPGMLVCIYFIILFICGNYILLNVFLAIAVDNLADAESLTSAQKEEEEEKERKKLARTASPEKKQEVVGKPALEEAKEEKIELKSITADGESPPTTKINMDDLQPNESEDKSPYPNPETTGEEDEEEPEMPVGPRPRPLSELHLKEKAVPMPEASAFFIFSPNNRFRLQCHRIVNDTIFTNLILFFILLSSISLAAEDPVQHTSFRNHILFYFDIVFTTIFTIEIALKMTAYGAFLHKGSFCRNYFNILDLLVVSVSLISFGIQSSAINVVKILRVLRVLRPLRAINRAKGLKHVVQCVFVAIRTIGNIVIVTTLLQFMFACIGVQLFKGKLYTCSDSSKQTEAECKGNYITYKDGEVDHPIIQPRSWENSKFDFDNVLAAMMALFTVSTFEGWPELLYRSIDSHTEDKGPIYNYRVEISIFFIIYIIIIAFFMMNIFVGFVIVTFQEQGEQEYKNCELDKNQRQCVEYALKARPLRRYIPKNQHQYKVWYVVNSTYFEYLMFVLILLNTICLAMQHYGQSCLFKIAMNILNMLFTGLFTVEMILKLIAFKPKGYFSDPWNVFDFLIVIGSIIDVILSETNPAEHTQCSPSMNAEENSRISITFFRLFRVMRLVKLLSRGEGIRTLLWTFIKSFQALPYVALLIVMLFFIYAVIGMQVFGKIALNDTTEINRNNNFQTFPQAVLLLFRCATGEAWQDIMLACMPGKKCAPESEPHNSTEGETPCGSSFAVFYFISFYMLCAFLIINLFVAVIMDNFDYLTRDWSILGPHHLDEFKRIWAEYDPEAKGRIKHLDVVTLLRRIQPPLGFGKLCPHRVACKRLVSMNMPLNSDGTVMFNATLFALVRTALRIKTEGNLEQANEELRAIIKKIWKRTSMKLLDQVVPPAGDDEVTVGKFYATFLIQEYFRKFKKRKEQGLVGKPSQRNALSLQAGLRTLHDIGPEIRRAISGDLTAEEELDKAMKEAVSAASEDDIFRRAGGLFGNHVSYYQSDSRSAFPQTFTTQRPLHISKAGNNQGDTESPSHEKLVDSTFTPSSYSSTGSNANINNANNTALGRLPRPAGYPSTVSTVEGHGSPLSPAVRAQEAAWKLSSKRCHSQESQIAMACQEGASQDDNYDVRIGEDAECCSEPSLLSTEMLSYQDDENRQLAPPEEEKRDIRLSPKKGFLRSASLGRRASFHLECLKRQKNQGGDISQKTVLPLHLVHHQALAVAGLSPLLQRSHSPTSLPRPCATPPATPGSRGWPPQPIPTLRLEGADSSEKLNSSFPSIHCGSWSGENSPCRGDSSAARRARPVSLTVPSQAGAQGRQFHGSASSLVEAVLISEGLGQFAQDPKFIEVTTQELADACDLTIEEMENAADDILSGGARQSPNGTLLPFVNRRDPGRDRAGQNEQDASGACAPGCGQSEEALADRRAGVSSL
# Sequence (P13806 27-960 partner limits assumed, other chains not shown): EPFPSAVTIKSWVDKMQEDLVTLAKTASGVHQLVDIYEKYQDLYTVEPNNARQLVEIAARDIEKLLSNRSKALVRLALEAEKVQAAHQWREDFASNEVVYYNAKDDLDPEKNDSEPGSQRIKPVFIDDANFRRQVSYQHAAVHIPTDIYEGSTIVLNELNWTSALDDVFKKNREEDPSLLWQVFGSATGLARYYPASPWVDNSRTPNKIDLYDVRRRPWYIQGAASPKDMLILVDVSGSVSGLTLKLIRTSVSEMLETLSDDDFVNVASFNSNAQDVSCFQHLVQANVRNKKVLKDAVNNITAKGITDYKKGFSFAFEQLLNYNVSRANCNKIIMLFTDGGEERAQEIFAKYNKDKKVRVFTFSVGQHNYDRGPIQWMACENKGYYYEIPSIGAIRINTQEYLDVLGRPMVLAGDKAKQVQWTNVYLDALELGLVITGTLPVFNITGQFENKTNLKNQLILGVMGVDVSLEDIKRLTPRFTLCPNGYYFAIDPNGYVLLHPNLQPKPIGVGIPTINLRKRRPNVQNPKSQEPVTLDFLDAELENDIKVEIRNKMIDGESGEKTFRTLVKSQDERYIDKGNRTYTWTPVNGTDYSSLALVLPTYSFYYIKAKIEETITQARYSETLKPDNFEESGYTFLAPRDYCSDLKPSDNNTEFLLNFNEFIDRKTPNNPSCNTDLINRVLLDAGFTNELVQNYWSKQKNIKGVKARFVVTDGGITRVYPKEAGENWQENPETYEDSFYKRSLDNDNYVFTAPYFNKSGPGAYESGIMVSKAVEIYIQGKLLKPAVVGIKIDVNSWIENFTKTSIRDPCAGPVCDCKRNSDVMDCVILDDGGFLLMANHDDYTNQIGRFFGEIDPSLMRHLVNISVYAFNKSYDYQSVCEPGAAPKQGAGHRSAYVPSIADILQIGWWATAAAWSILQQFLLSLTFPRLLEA
# Sequence (P13806 961-1106 partner limits assumed, other chains not shown): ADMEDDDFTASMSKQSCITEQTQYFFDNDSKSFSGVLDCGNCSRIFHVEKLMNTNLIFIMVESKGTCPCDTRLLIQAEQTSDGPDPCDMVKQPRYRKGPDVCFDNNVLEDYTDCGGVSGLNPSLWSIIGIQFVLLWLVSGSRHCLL
# EXPERIMENT_NOTES: Nitrendipine Binding Assay (Test 1)
# DETAILS: 3H-nitrendipine (0.05-0.50 nM), rabbit heart membrane, 90 min at 4° C., pH 7.4; read-out: Test 1 (IC50): concentration required to achieve 50% displacement of specifically-bound nitrendipine
Below, each of the compounds is paired with its reported pIC50 value.
Note: pIC50 values are expressed as the negative base-10 logarithm of concentration in M.

COMPOUND	pIC50
CC1=C(C(=O)OCCN(C)Cc2ccccc2)C(c2ccc(C(F)(F)F)cc2)c2c(n(C)c(=O)n(C)c2=O)N1 (stereo not shown)	5.64
CC1=C(C(=O)OCCN(C)Cc2ccccc2)C(c2cccc([N+](=O)[O-])c2)c2c(n(C)c(=O)n(C)c2=O)N1 (stereo not shown)	6.64
CC1=C(C(=O)OCCN(C)Cc2ccccc2)C(C2CCCCC2)c2c(n(C)c(=O)n(C)c2=O)N1 (stereo not shown)	5.70

Recorded result, CC1=C(C(=O)OCCCBr)C(c2cccc(Cl)c2)c2c(n(C)c(=O)n(C)c2=O)N1 (stereo not shown) , pIC50: 6.41

Recorded result, CC1=C(C(=O)OCCN(C)Cc2ccccc2)C(c2ccccc2Cl)c2c(n(C)c(=O)n(C)c2=O)N1 (stereo not shown) , pIC50: 6.00

Recorded result, CC1=C(C(=O)OCCN(C)Cc2ccccc2)C(c2ccco2)c2c(n(C)c(=O)n(C)c2=O)N1 (single isomer, unassigned) , pIC50: 5.70

Recorded result, CC1=C(C(=O)OCCN(C)Cc2ccccc2)C(c2cccc(Cl)c2)c2c(n(C)c(=O)n(C)c2=O)N1 (stereo not shown) , pIC50: 7.00

Recorded result, CC1=C(C(=O)OCCN(C)Cc2ccccc2)C(c2ccco2)c2c(n(C)c(=O)n(C)c2=O)N1.Cl.O (single isomer, unassigned) [Example III, Monohydrochloride Monohydrate] , pIC50: 5.22

Recorded result, CC1=C(C(=O)OCCF)C(c2cccc(Cl)c2)c2c(n(C)c(=O)n(C)c2=O)N1 (stereo not shown) , pIC50: 6.05

Recorded result, CC1=C(C(=O)OCCBr)C(c2cccc(Cl)c2)c2c(n(C)c(=O)n(C)c2=O)N1 (stereo not shown) , pIC50: 7.11

Recorded result, CC1=C(C(=O)OCCN(C)Cc2ccccc2)C(c2ccccc2[N+](=O)[O-])c2c(n(C)c(=O)n(C)c2=O)N1 (stereo not shown) , pIC50: 5.60

Recorded result, COC(=O)C1=C(C)Nc2c(c(=O)n(C)c(=O)n2C)C1c1ccco1 (stereo not shown) , pIC50: 4.00

Recorded result, COC(=O)C1=C(C)Nc2c(c(=O)n(C)c(=O)n2C)C1c1cccc([N+](=O)[O-])c1 (stereo not shown) , pIC50: 6.52

Recorded result, CC1=C(C(=O)OCCN(C)Cc2ccccc2)C(c2cccc(F)c2)c2c(n(C)c(=O)n(C)c2=O)N1 (stereo not shown) , pIC50: 6.30

Recorded result, COC(=O)C1=C(C)Nc2c(c(=O)n(C)c(=O)n2C)C1c1cccc(Cl)c1 (stereo not shown) , pIC50: 6.00

Recorded result, CC1=C(C(=O)OCCN(C)Cc2ccccc2)C(c2cccc(C)c2)c2c(n(C)c(=O)n(C)c2=O)N1 (stereo not shown) , pIC50: 5.49

Recorded result, CC1=C(C(=O)OCCBr)C(c2cccc(C(F)(F)F)c2)c2c(n(C)c(=O)n(C)c2=O)N1 (stereo not shown) , pIC50: 5.96

Recorded result, CC1=C(C(=O)OCCN(C)Cc2ccccc2)C(c2cccc([N+](=O)[O-])c2)c2c([nH]c(=O)[nH]c2=O)N1 (stereo not shown) , pIC50: 5.11

Recorded result, CC1=C(C(=O)OCCBr)C(c2ccccc2Cl)c2c(n(C)c(=O)n(C)c2=O)N1 (stereo not shown) , pIC50: 6.76

Recorded result, CC1=C(C(=O)OCCN(C)Cc2ccccc2)C(c2cccc(Cl)c2)c2c([nH]c(=O)[nH]c2=O)N1 (stereo not shown) , pIC50: 5.10

Recorded result, CC1=C(C(=O)OCCBr)C(c2cccc([N+](=O)[O-])c2)c2c(n(C)c(=O)n(C)c2=O)N1 (stereo not shown) , pIC50: 6.96

Recorded result, CC1=C(C(=O)OCCN(C)Cc2ccccc2)C(c2cccc(C#N)c2)c2c(n(C)c(=O)n(C)c2=O)N1 (stereo not shown) , pIC50: 6.19

Recorded result, CC1=C(C(=O)OCCN(C)Cc2ccccc2)C(c2ccccc2)c2c(n(C)c(=O)n(C)c2=O)N1 (stereo not shown) , pIC50: 5.89

Recorded result, CC1=C(C(=O)OCC(F)(F)F)C(c2cccc(Cl)c2)c2c(n(C)c(=O)n(C)c2=O)N1 (stereo not shown) , pIC50: 6.07

---

# System: spontaneously hypertensive rats
# EXPERIMENT_NOTES: Spontaneously Hypertensive Rat Test (Test 3)
# Assay type: in vivo
# DETAILS: 100 mg/kg body weight, four male spontaneously hypertensive rats, indirect tail-cuff method
REPORTED_PROPERTY: Test 3 (mmHg, 100 mpk): average of the peak decrease in systolic blood pressure (mmHg)
Report as a plain number; the unit mmHg is understood.

COMPOUND	VALUE_OBSERVED
CC1=C(C(=O)OCCN(C)Cc2ccccc2)C(c2cccc(F)c2)c2c(n(C)c(=O)n(C)c2=O)N1 (centres unmarked)	-47
CC1=C(C(=O)OCCN(C)Cc2ccccc2)C(C2CCCCC2)c2c(n(C)c(=O)n(C)c2=O)N1 (centres unmarked)	-30
CC1=C(C(=O)OCCN(C)Cc2ccccc2)C(c2ccccc2[N+](=O)[O-])c2c(n(C)c(=O)n(C)c2=O)N1 (centres unmarked) [XII]	-16
CC1=C(C(=O)OCCBr)C(c2cccc([N+](=O)[O-])c2)c2c(n(C)c(=O)n(C)c2=O)N1 (centres unmarked)	-10
CC1=C(C(=O)OCCN(C)Cc2ccccc2)C(c2ccccc2[N+](=O)[O-])c2c(n(C)c(=O)n(C)c2=O)N1 (centres unmarked) [XIII]	-35
CC1=C(C(=O)OCCN(C)Cc2ccccc2)C(c2ccccc2)c2c(n(C)c(=O)n(C)c2=O)N1 (centres unmarked)	-28

Recorded result, CC1=C(C(=O)OCCN(C)Cc2ccccc2)C(c2ccc(C(F)(F)F)cc2)c2c(n(C)c(=O)n(C)c2=O)N1 (centres unmarked) , Test 3 (mmHg, 100 mpk): average of the peak decrease in systolic blood pressure: -16

Recorded result, COc1cccc(C2C(C(=O)OCCN(C)Cc3ccccc3)=C(C)Nc3c2c(=O)n(C)c(=O)n3C)c1 (centres unmarked) , Test 3 (mmHg, 100 mpk): average of the peak decrease in systolic blood pressure: -57

---

# Tested on: vascular smooth muscle tissue from the rabbit aorta
# EXPERIMENT_NOTES: Rabbit Potassium Depolarized Blood Vessel Test (Test 2)
# Assay type: cell-based
# DETAILS: Oryctolagus cuniculus, 10 min; test compound 10^-6 M, 10 minute exposure, 30 mM potassium chloride, rabbit aorta strips, 37° C.; read-out: Test 2 (% Inhibition) of potassium-induced contraction
REPORTED_PROPERTY: inhibition at 1 µM

Example entries and their recorded answers appear below.
COMPOUND	inhibition at 1 µM
COc1cccc(C2C(C(=O)OCCN(C)Cc3ccccc3)=C(C)Nc3c2c(=O)n(C)c(=O)n3C)c1 (stereo not shown)	8%
CC1=C(C(=O)OCCN(C)Cc2ccccc2)C(C2CCCCC2)c2c(n(C)c(=O)n(C)c2=O)N1 (stereo not shown)	18%
CC1=C(C(=O)OCCN(C)Cc2ccccc2)C(c2cccc(C)c2)c2c(n(C)c(=O)n(C)c2=O)N1 (stereo not shown)	16%

Recorded result, COC(=O)C1=C(C)Nc2c(c(=O)n(C)c(=O)n2C)C1c1cccc([N+](=O)[O-])c1 (stereo not shown) , inhibition at 1 µM: 54%
